Tgt: human GLP1-R (Homo sapiens, UniProt P43220)
Sequence (P43220 24-463): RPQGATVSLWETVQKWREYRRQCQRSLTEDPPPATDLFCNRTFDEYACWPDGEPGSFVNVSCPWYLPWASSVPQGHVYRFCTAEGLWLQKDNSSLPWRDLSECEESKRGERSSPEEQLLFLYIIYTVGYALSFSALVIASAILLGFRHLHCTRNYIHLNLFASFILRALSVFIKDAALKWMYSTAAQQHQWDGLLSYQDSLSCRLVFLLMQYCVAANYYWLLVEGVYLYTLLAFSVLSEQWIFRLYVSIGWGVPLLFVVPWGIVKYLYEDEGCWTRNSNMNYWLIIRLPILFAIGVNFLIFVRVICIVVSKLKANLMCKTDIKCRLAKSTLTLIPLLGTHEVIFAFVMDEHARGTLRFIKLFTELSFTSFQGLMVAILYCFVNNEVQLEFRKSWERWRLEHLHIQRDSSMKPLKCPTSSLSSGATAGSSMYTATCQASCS
Experiment Notes: GLP1-R internalization assay in HEK293 cells
Type: cell-based
Measurement Parameters: normalized to maximum concentration of GLP-1 (100%)
Starred links: 1 amine or outer side, 2 acyl side, 3 side chain; linkers in the order of their positions; H or OH if unused. Non-standard residues stand in square brackets, D forms with d. Groups on a side chain read outwards from the residue. *: point of attachment. C20 diacid = O=C(O)CCCCCCCCCCCCCCCCCCC(=O)*; C18 diacid = O=C(O)CCCCCCCCCCCCCCCCC(=O)*; αMePhe(2-F) = C[C@](N)(Cc1ccccc1F)C(=O)O; γGlu = O=C(O)[C@H](CCC(=O)[*:2])N[*:1]; 4Pal = N[C@@H](Cc1ccncc1)C(=O)O; αMeL = CC(C)C[C@](C)(N)C(=O)O; Orn = NCCC[C@H](N)C(=O)O; AEEA = NCCOCCOCC(=O)O; Aib = CC(C)(N)C(=O)O
Experimental Endpoint: Internalization % TOP

>>> test_result("H-Y[Aib]QGT[αMePhe(2-F)]TSD[4Pal]SILLDKK([γGlu-γGlu-C18 diacid])AQ[Aib]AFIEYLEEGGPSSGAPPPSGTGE-NH2 [Example 510]")
"113%"
>>> test_result("H-Y[Aib]QGTFTSDFS[Orn][αMeL]LDKK([AEEA-γGlu-C18 diacid])AQ[Aib]AFIEYLLEGGHSSGEPPPGGS-NH2 [Example 164]")
"46.5%"
>>> test_result("H-Y[Aib]QGTFTSDFS[Orn][αMeL]LDKK([AEEA-γGlu-C18 diacid])AQ[Aib]AFIEYLLE[Aib]GHSSGAPPPSGS-NH2 [Example 241]")
"37.6%"
>>> test_result("H-Y[Aib]QGTFTSDFSK[αMeL]LDKK([AEEA-γGlu-C20 diacid])AQ[Aib]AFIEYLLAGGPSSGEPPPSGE[AEEA]-NH2 [Example 33]")
"64.6%"
>>> test_result("H-Y[Aib]QGTFTSDFS[Orn][αMeL]LDKK([AEEA-γGlu-C18 diacid])AQ[Aib]AFIEWLLEGGTSSGAPPPSGE-NH2 [Example 175]")
"49.2%"
>>> test_result("H-Y[Aib]QGTFTSDFSK[αMeL]LDKK([AEEA-γGlu-C20 diacid])AQ[Aib]AFIEYLLAGGPSSGAPPPSGG-NH2 [Example 12]")
"75.3%"
>>> test_result("H-Y[Aib]QGTFTSDFSK[αMeL]LDKK([AEEA-γGlu-C20 diacid])AQ[Aib]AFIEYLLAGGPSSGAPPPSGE-NH2 [Example 11]")
"73.8%"
>>> test_result("H-Y[Aib]QGTFTSDFS[Orn][αMeL]LDKK([AEEA-γGlu-C18 diacid])AQ[Aib]AFIEYLLE[Aib]G[4Pal]SSGAPPPSGE-NH2 [Example 248]")
"39.5%"
>>> test_result("H-Y[Aib]QGTFTSDFS[Orn][αMeL]LDKK([AEEA-γGlu-C18 diacid])AQ[Aib]AFIEWLLEGGHSSGAPPPSGT-NH2 [Example 171]")
"36.1%"
>>> test_result("H-Y[Aib]QGTFTSDFSK[αMeL]LDKK([AEEA-γGlu-C18 diacid])AQ[Aib]AFIEYLIE[Aib]GESSGAPPPSGE-NH2 [Example 217]")
"58.2%"
>>> test_result("H-Y[Aib]QGTFTSDFS[Orn][αMeL]LDKK([AEEA-γGlu-C18 diacid])AQ[Aib]AFIEYLIE[Aib]GESSGAPPPSGE-NH2 [Example 219]")
"37.2%"
>>> test_result("H-Y[Aib]QGTFTSDFSK[αMeL]LDKK([AEEA-AEEA-γGlu-C20 diacid])AQ[Aib]AFIEYLLEGGPSSGAPPPGEG-NH2 [Example 17]")
"72.2%"
